# Tested on: multidrug resistant Brazilian clinical isolates of P. aeruginosa
# Format: cell-based, Pseudomonas aeruginosa
Residues, ends and D or L forms follow the SMILES beside them.
readoutLabel: MIC

CC[C@H](C)[C@H](NC(=O)[C@H](CCCCN)NC(=O)[C@H](CC(C)C)NC(=O)[C@@H](NC(=O)[C@@H](N)C(C)C)C(C)C)C(=O)N[C@H](C(=O)N[C@@H](CCCNC(=N)N)C(=O)N[C@@H](CCCNC(=N)N)C(=O)N[C@@H](Cc1ccccc1)C(N)=O)C(C)C [HHC148, VVLKIVRRF] (H-VVLKIVRRF-NH2; N-terminus assumed) :: >241 µM
CC[C@H](C)[C@H](NC(=O)[C@H](CC(N)=O)NC(=O)[C@H](CCCCN)NC(=O)[C@H](Cc1ccccc1)NC(=O)[C@H](CCCNC(=N)N)NC(=O)[C@H](Cc1c[nH]c2ccccc12)NC(=O)[C@H](C)N)C(=O)N[C@@H](CCCNC(=N)N)C(=O)N[C@@H](CCCCN)C(N)=O [HHC126, AWRFKNIRK] (H-AWRFKNIRK-NH2; N-terminus assumed) :: >223 µM
CC[C@H](C)[C@H](NC(=O)[C@H](C)N)C(=O)N[C@@H](CCCNC(=N)N)C(=O)N[C@@H](CCCNC(=N)N)C(=O)N[C@@H](Cc1c[nH]c2ccccc12)C(=O)N[C@@H](CCCNC(=N)N)C(=O)N[C@H](C(=O)N[C@@H](CCCNC(=N)N)C(=O)N[C@@H](CCCCN)C(N)=O)[C@@H](C)CC [HHC142, AIRRWRIRK] (H-AIRRWRIRK-NH2; N-terminus assumed) :: >217 µM

Moving on to the next compound.
What measured MIC goes with CC[C@H](C)[C@H](NC(=O)[C@H](CCCNC(=N)N)NC(=O)[C@@H](N)CCCCN)C(=O)N[C@@H](CCSC)C(=O)N[C@@H](CCCCN)C(=O)N[C@@H](CC(C)C)C(=O)N[C@@H](CCCCN)C(=O)N[C@@H](CCSC)C(=O)N[C@@H](CCCNC(=N)N)C(N)=O [HHC133, KRIMKLKMR] (H-KRIMKLKMR-NH2; N-terminus assumed) ?
>226 µM

---

# Test system: MCP-1 release by human PBMC
# experimentSummary: Chemokine induction in PBMC (capture ELISA)
# Format: cell-based
# conditionSet: 20 μg/ml peptide, background (204) subtracted
No end group written: not given here.
Please mark 1 if the recorded Chemokine induction MCP-1 is equal to or greater than 300 pg/mL, and -1 if it falls below.

1044 (RRWIVWI) [compound 1044] :: 1

Evaluate FRIRVRVIR (FRIRVRVIR-NH2) [compound 1030] : Chemokine induction MCP-1 at minimum 300 pg/mL?
-1

Tell me whether Chemokine induction MCP-1 is at least 300 pg/mL here: 1015 (VLIRWNGKK) [compound 1015]
-1

For this substance, is measured Chemokine induction MCP-1 300 pg/mL or higher? 1040 (FQVVKIKVR) [compound 1040]
-1

Dear colleague, could you confirm whether 1016 (LRIRWIFKR) [compound 1016] has Chemokine induction MCP-1 at or above 300 pg/mL?
-1

Exam item: decide whether the reported Chemokine induction MCP-1 for 1014 (RQVIVRRW) [compound 1014] is at least 300 pg/mL.
-1
